ASSAY TEXT: in vivo; note: test concentration or dose not given here
CONDITION SET: rat, plasma, po
1 means recorded AUC is 300 ng·h/mL or above; 0 means it is below 300 ng·h/mL.

Use these answered entries as a reference point.
// query Determine whether measured AUC meets or exceeds 300 ng·h/mL for CC(C)c1nc(COC(=O)NC(C(=O)N[C@@H](Cc2ccccc2)C[C@H](O)[C@H](Cc2ccccc2)NC(=O)OCc2cncs2)C(C)C)cs1 (stereo partly specified)
// result 0

// query Form field: AUC at least 300 ng·h/mL? Entry: CC(C)c1cccc(COC(=O)NC(C(=O)N[C@@H](Cc2ccccc2)[C@@H](O)C[C@H](Cc2ccccc2)NC(=O)OCc2cccnc2)C(C)C)n1 (stereo partly specified)
// result 1

// query Is AUC for COc1ccc(CN(C)C(=O)NC(C(=O)N[C@@H](Cc2ccccc2)C[C@H](O)[C@H](Cc2ccccc2)NC(=O)OCc2cccnc2)C(C)C)nc1 (stereo partly specified) at or above 300 ng·h/mL?
// result 0

// query Textbook exercise: given the entry CCc1cccc(CN(C)C(=O)NC(C(=O)N[C@@H](Cc2ccccc2)[C@@H](O)C[C@H](Cc2ccccc2)NC(=O)OCc2cccnc2)C(C)C)n1 (stereo partly specified) , state whether its AUC is greater than or equal to 300 ng·h/mL.
// result 1

// query Form field: AUC at least 300 ng·h/mL? Entry: CC(C)c1nc(COC(=O)NC(C(=O)N[C@@H](Cc2ccccc2)[C@@H](O)C[C@H](Cc2ccccc2)NC(=O)OCc2cccnc2)C(C)C)cs1 (stereo partly specified)
// result 0

Continuing:
// query hey, is AUC for this one >= 300 ng·h/mL? COc1ccc(COC(=O)NC(C(=O)N[C@@H](Cc2ccccc2)C[C@H](O)[C@H](Cc2ccccc2)NC(=O)OCc2cccnc2)C(C)C)nc1 (stereo partly specified)
// result 0

// query Given the entry Cc1ncc(CN(C)C(=O)NC(C(=O)N[C@@H](Cc2ccccc2)[C@@H](O)C[C@H](Cc2ccccc2)NC(=O)OCc2cccnc2)C(C)C)nc1C (stereo partly specified) , answer whether its AUC meets or surpasses 300 ng·h/mL.
// result 1

// query Is it the case that Cc1ncsc1CCOC(=O)NC(C(=O)N[C@@H](Cc1ccccc1)C[C@H](O)[C@H](Cc1ccccc1)NC(=O)OCc1cccnc1)C(C)C (stereo partly specified) has AUC reaching or exceeding 300 ng·h/mL?
// result 1

// query Check this compound for AUC at or above 300 ng·h/mL: Cc1ncc(COC(=O)NC(C(=O)N[C@@H](Cc2ccccc2)C[C@H](O)[C@H](Cc2ccccc2)NC(=O)OCc2cccnc2)C(C)C)nc1C (stereo partly specified)
// result 1

// query API: above_or_equal(metric=AUC, cutoff=300 ng·h/mL) for item CC(C)C(NC(=O)OCc1nccs1)C(=O)N[C@@H](Cc1ccccc1)C[C@H](O)[C@H](Cc1ccccc1)NC(=O)OCc1cccnc1 (stereo partly specified)
// result 1

// query AUC >= 300 ng·h/mL for CC(C)c1nc(CN(C)C(=O)NC(C(=O)N[C@@H](Cc2ccccc2)C[C@H](O)[C@H](Cc2ccccc2)NC(=O)OCc2cccnc2)C(C)C)co1 (stereo partly specified) ?
// result 1

// query # check: AUC of CC(C)C(NC(=O)OCc1ccccn1)C(=O)N[C@@H](Cc1ccccc1)C[C@H](O)[C@H](Cc1ccccc1)NC(=O)OCc1cncs1 (stereo partly specified) is greater than or equal to 300 ng·h/mL
// result 1
